- Test system: IL-6-GFP PC-9GR
- protocol: cell viability (CCK-8 OD) relative to DMSO control (fraction of control); higher = more viable cells
- testParameters: compound concentration: 10 uM; treatment time: 48 h

molecule: Nc1cccc2c1C(=O)N(C1CCC(=O)NC1=O)C2=O (centres undefined) [Pomalidomide]
cell viability: 1.5
--
molecule: Cc1ccc(Nc2nccc(N(C)c3ccc4c(C)n(C)nc4c3)n2)cc1S(N)(=O)=O.Cl
cell viability: 0.886
--
molecule: Cl.Cl.Cl.Cl.Cl.Cl.Cl.Cl.c1cc(CN2CCCNCCNCCCNCC2)ccc1CN1CCCNCCNCCCNCC1 [Plerixafor 8HCl (AMD3100 8HCl)]
cell viability: 1.04
--
molecule: CNC(=O)C(NC(=O)C(CC(C)C)C(O)C(=O)NO)C(C)(C)C (centres undefined)
cell viability: 0.915

* * *

- System: IL-6-GFP PC-9
- protocol: cell viability (CCK-8 OD) relative to DMSO control (fraction of control); higher = more viable cells
- testParameters: compound concentration: 10 uM; treatment time: 48 h
# Lookup of reported cell viability keyed by entry
measurementName: cell viability

molecule: COc1cc2nccc(Oc3ccc(NC(=O)C4(C(=O)Nc5ccc(F)cc5)CC4)cc3)c2cc1OC
testedSystem: IL-6-GFP PC-9
measurementName: cell viability
observedMeasurement: 0.56
--
molecule: CNCC(O)C(O)C(O)C(O)CO.Cc1c(Nc2ncccc2C(=O)O)cccc1C(F)(F)F
testedSystem: IL-6-GFP PC-9
measurementName: cell viability
observedMeasurement: 0.964
--
molecule: CC(C)(C#N)c1cc(Cn2cncn2)cc(C(C)(C)C#N)c1
testedSystem: IL-6-GFP PC-9
measurementName: cell viability
observedMeasurement: 1.01
--
molecule: COc1ccc2cc(C(C)C(=O)O)ccc2c1 (centres undefined)
testedSystem: IL-6-GFP PC-9
measurementName: cell viability
observedMeasurement: 1.08

* * *

# Lookup of reported cell viability keyed by entry
- Test system: IL-6-GFP PC-9GR
- protocol: cell viability (CCK-8 OD) relative to DMSO control (fraction of control); higher = more viable cells
- testParameters: compound concentration: 10 uM; treatment time: 48 h
measurementName: cell viability

compound: CS(=O)(=O)O.N#CC1(c2ccc(NC(=O)c3cccnc3NCc3ccncc3)cc2)CCCC1
observedMeasurement: 1.32
//
compound: COc1cccc2c1C(=O)c1c(O)c3c(c(O)c1C2=O)CC(O)(C(=O)CO)CC3OC1CC(N)C(O)C(C)O1.Cl (stereo not given) [Epirubicin HCl]
observedMeasurement: 0.141
//
compound: Cc1nc(Nc2ncc(C(=O)Nc3c(C)cccc3Cl)s2)cc(N2CCN(CCO)CC2)n1.Cl [Dasatinib hydrochloride]
observedMeasurement: 0.517
//
compound: CCN1CCN(Cc2ccc(Nc3ncc(F)c(-c4cc(F)c5nc(C)n(C(C)C)c5c4)n3)nc2)CC1.CS(=O)(=O)O
observedMeasurement: 0.42
//
compound: CCC(c1ccc(O)cc1)C(CC)c1ccc(O)cc1 (stereo not given)
observedMeasurement: 1.28
//
compound: CCCCC(CC)CN1CN(CC(CC)CCCC)CC(C)(N)C1 (stereo not given)
observedMeasurement: 1.58
//
compound: C#Cc1cccc(Nc2ncnc3cc4c(cc23)OCCOCCOCCO4)c1
observedMeasurement: 1.18
//
compound: O=C(OCCOCCO)c1ccccc1Nc1cccc(C(F)(F)F)c1 [Etofenamate]
observedMeasurement: 1.01
//
compound: CC12CCC(CC1=O)C2(C)C (stereo not given)
observedMeasurement: 1.24
//
compound: CCC(C)n1ncn(-c2ccc(N3CCN(c4ccc(OCC5COC(Cn6cncn6)(c6ccc(Cl)cc6Cl)O5)cc4)CC3)cc2)c1=O (stereo not given)
observedMeasurement: 0.797
//
compound: CC(Oc1cc(-c2cnn(C3CCNCC3)c2)cnc1N)c1c(Cl)ccc(F)c1Cl [(S)-crizotinib]
observedMeasurement: 0.458
//
compound: CCC(=O)NS(=O)(=O)c1ccc(-c2c(-c3ccccc3)noc2C)cc1
observedMeasurement: 1.06
//
compound: Cc1oncc1C(=O)Nc1ccc(C(F)(F)F)cc1 [Leflunomide]
observedMeasurement: 1.1
//
compound: CO/N=C(\C(=O)NC1C(=O)N2C(C(=O)OCOC(=O)C(C)(C)C)=C(C)CSC12)c1csc(N)n1.Cl (stereo not given) [Cefetamet pivoxil hydrochloride]
observedMeasurement: 1.25
//
compound: O=C(O)c1ccccc1OP(=O)(O)O
observedMeasurement: 0.943
//
compound: CN(C)c1cc(CNCC(C)(C)C)c(O)c2c1CC1CC3C(N(C)C)C(O)=C(C(N)=O)C(=O)C3(O)C(O)=C1C2=O.Cc1ccc(S(=O)(=O)O)cc1 (stereo not given) [Omadacycline tosylate]
observedMeasurement: 1.02
//
compound: CCC1(O)CC2CN(CCc3c([nH]c4ccccc34)C(C(=O)OC)(c3cc4c(cc3OC)N(C=O)C3C(O)(C(=O)OC)C(OC(C)=O)C5(CC)C=CCN6CCC43C65)C2)C1 (stereo not given)
observedMeasurement: 0.556
//
compound: CC(C(=O)O)c1cccc(C(=O)c2ccccc2)c1 (stereo not given)
observedMeasurement: 1.64
//
compound: NC(=S)N/N=C/c1ncccc1N
observedMeasurement: 0.255
//
compound: COc1ccc2cc(C(C)C(=O)O)ccc2c1 (stereo not given)
observedMeasurement: 1.5
//
compound: CC(C(=O)O)c1ccc(C(=O)c2ccccc2)s1 (stereo not given)
observedMeasurement: 0.905
//
compound: CCC1=CC2CN(C1)Cc1c([nH]c3ccccc13)C(C(=O)OC)(c1cc3c(cc1OC)N(C)C1C(O)(C(=O)OC)C(OC(C)=O)C4(CC)C=CCN5CCC31C54)C2.O=C(O)C(O)C(O)C(=O)O.O=C(O)C(O)C(O)C(=O)O (stereo not given) [Vinorelbine Tartrate]
observedMeasurement: 0.559
//
compound: O=C(CCCCCCC(=O)Nc1ccccc1)NO [Vorinostat (SAHA, MK0683)]
observedMeasurement: 0.449
//
compound: CC(C(=O)O)c1ccc2c(c1)Cc1cccnc1O2 (stereo not given)
observedMeasurement: 1.12
//
compound: O=C([O-])CC(O)(CC(=O)[O-])C(=O)[O-].O=C([O-])CC(O)(CC(=O)[O-])C(=O)[O-].[BiH6+3].[K+].[K+].[K+]
observedMeasurement: 0.722
//
compound: CC#CCn1c(N2CCCC(N)C2)nc2c1c(=O)n(Cc1nc(C)c3ccccc3n1)c(=O)n2C (stereo not given)
observedMeasurement: 0.849
//
compound: CCC(Nc1ncnc2[nH]cnc12)c1nc2cccc(F)c2c(=O)n1-c1ccccc1 (stereo not given)
observedMeasurement: 1.27
//
compound: CC(=O)OC(C)OC(=O)C(C)c1ccc(-c2ccccc2)c(F)c1 (stereo not given)
observedMeasurement: 1.17
//
compound: O.S=c1nc[nH]c2nc[nH]c12 [6-Mercaptopurine (6-MP) Monohydrate]
observedMeasurement: 0.92
//
compound: COc1ccc2c(c1)c(CC(=O)OCC(=O)O)c(C)n2C(=O)c1ccc(Cl)cc1
observedMeasurement: 1.07
